The reported numbers originate from patent US11518760B2.

Test system: Wolbachia in adult Brugia malayi
Protocol details: Adult Brugia malayi mouse model, Wolbachia wsp qPCR
Format: in vivo
Assay setup: Table 5A; BALB/c CCR3−/− mice, oral; dose/duration stands in the drawing (not visible)
Quantity kind: % Wolbachia reduction cf median Vehicle (%)
Response body: numeric value in %, unit text excluded.

CC1COCCN1c1nc(NCc2cccnc2C(F)(F)F)c2cccnc2n1 (stereo not shown) [drawing 692]; 97.8

For the compound C[C@H]1COCCN1c1nc(NCc2cccnc2C(F)(F)F)c2cccnc2n1 [drawing 694] , what % Wolbachia reduction cf median Vehicle is on record?
98.5

For the compound CC(C)N(C)c1nc(NCc2cccnc2C(F)(F)F)c2cccnc2n1 [drawing 691] , what % Wolbachia reduction cf median Vehicle is on record?
99.4

For the compound CC1COCCN1c1nc(NCc2cccnc2C(F)(F)F)c2cccnc2n1 (stereo not shown) [drawing 693] , what % Wolbachia reduction cf median Vehicle is on record?
98.8

* * *

Test system: C6/36 Aedes albopictus cell line infected with Wolbachia pipientis (Wolbachia strain wAlbB)
Protocol details: In vitro insect cell line assay (anti-Wolbachia screen, SYTO 11 high content imaging)
Type: cell-based
Assay setup: C6/36, 168 h, read-out: In vitro anti-Wolbachia activity
Quantity kind: EC50

For the compound Cc1cc2ncnc(N(C)C(C)c3ccccc3C(F)(F)F)c2s1 (stereo not shown) [Example 1] , what EC50 is on record?
1 to 100 µM
